Test system: HCC-2998 colon
Test: NCI-60 one-dose screen, 48 h
Settings: 10 µM unless noted
The panel holds about 83,000 compounds, 20% with a hit somewhere; the sample as a whole holds those more often. Active and inactive are the calls of the source. The calls were made as follows: active = growth percent below 10; inactive = the rest.
# output must be one of active, inactive

Reference set, count: 5
Molecule	Target or system	Class name
COc1cc(/C=C/C(=O)N2CCN(C(=O)c3cc(OC)c(OC)c(OC)c3)CC2)ccc1OCCCN1C(=O)c2cccc3cccc(c23)C1=O	HCC-2998 colon	inactive
C[C@H]1[C@H]2[C@H]3CC[C@@H]4[C@@]5(C)C/C(=C/c6ccco6)C(=O)C(C)(C)[C@@H]5CC[C@@]4(C)[C@]3(C)CC[C@]23CO[C@]1(C)[C@@H](C(=O)/C=C\c1ccco1)C3	HCC-2998 colon	inactive
COc1ccc(OC)c(-c2c(C#N)c(-c3ccc(Cl)cc3)nc3c2c(-c2ccccc2)nn3-c2ccccc2)c1	HCC-2998 colon	inactive
CC1=C([Se]CC(OC(=O)[C@@H](CO)NC(=O)OC(C)(C)C)C(=O)NC(C)(C)C)C(=O)c2ccccc2C1=O (stereo partly drawn)	HCC-2998 colon	active
COc1cc(-c2nn(-c3ccccc3)cc2-c2ccnc(NCCNS(=O)(=O)c3ccc(Cl)cc3)n2)ccc1Cl	HCC-2998 colon	inactive

Please find the next molecule below.
(Q) Outcome logged for "CN(Cc1cnc2nc(N)nc(N)c2n1)c1ccc(C(=O)N[C@@H](CCc2nn[nH]n2)c2nn[nH]n2)cc1" in this assay:
(A) inactive

====

Test system: M14 melanoma
Assay: NCI-60 one-dose screen, 48 h
Conditions: 10 µM unless noted
About 83,000 compounds went through this panel and 20% of them were active in at least one assay; those are over-represented in the sample as a whole. The source made the active and inactive calls. The calls were made as follows: active = growth percent below 10; inactive = the rest.
Answer with one of the outcomes true for active, false for inactive

Examples with answers:
Compound	Target or system	Class name
Cn1c2c(c3ccc(Cl)c(Cl)c31)C(C#N)C1(CCNCC1)NC2=O (stereo not given)	M14 melanoma	false
COc1ccc2c(c1)C(=O)/C(=C/c1ccc(OCC(=O)Nc3nccs3)cc1)O2	M14 melanoma	false
Cc1cc(C)c2c(-c3nnc(N)s3)cc(=O)oc2c1	M14 melanoma	false
NC(=S)Nc1cccc(O)c1	M14 melanoma	false
O=C(CCc1nnc(CN(c2ccccc2)c2ccccc2)o1)c1nc2ccccc2[nH]1	M14 melanoma	false
C=CCNc1nc(NN2C(=O)c3cccc4cccc(c34)C2=O)nc(-n2cnc3ccccc32)n1	M14 melanoma	false

(Q) I'd appreciate the recorded outcome for "Cc1ccc2nc(C)c(-c3nnc(SCc4ccc(C#N)cc4)o3)n2c1" from this test.
(A) false

(Q) Can you look up the reported call for "O=Cc1c[nH]c2ccc(-c3csc4ccccc34)cc12" for me?
(A) false

(Q) Answer briefly: the call reported for "COc1ccccc1CNCCCN1C(=O)c2ccc3c4c(ccc(c24)C1=O)C(=O)N(CCCNCCCCN)C3=O" in this assay.
(A) true

(Q) Hi team, can someone confirm the assay call for "Cn1c(-c2c(N)n(Cc3ccc(C(F)(F)F)cc3)c3nc(C#N)c(C#N)nc23)nc2ccccc21" ?
(A) false

====

Tested on: T-47D breast
Assay: NCI-60 one-dose screen, 48 h
Conditions: 10 µM unless noted
About 83,000 compounds went through this panel and 20% of them were active in at least one assay; those are over-represented in the sample as a whole. Activity calls are given as the source filed them. Rule for the calls: active = growth percent below 10; inactive = the rest.
Tick one outcome: YES = active, NO = inactive

Answered cases to consult:
Molecule	Target or system	Class name
Cc1cc(NCc2cc(Nc3ccnc4cc(Cl)ccc34)ccc2F)nc(Cl)n1	T-47D breast	NO
COc1cc(Cn2ncc3ccc(NC(=O)c4cc5ccccc5oc4=N)cc32)cc(OC)c1OC	T-47D breast	NO
COc1ccc(-c2c(N)n[nH]c2-c2ccc(Cl)cc2O)cc1OC	T-47D breast	NO
COc1cc(C2CC(c3cc(OC)c(OCCCOc4ccc(-n5c(/C=C/c6ccccc6)nc6ccccc6c5=O)cc4)c(OC)c3)=NO2)cc(OC)c1OC (stereo unspecified)	T-47D breast	NO
O=c1[nH][n+](-c2ccc(Cl)cc2)no1	T-47D breast	NO

Now examine the next entry.
(Q) What is the recorded call for this molecule in the test? "Cc1cc(N2CCCC2)nc(NCc2cc(Nc3ccnc4cc(Cl)ccc34)ccc2F)n1"
(A) YES

The reported numbers originate from PubChem BioAssay (NCI).
